assay: Tmax in BALB/c mouse model of mBSA-induced delayed type hypersensitivity at 3 mg/kg, po administered twice daily for 7 days followed by mBSA challenge and measured after 24 hrs; assay type: ADME, organism-based; conditions: in vivo, time 8 day
Readout name: Tmax

Data request: What Tmax value was documented for this compound, Cc1c(-c2ccc(NC(=O)c3c(F)cccc3F)cc2)cccc1-c1nn(C)c(=O)o1 ?
Data returned: 2 h

====

assay: Volume of distribution at steady state in BALB/c mouse at 1 mg/kg, iv measured upto 24 hrs by LC-MS/MS analysis; format: ADME, organism-based; conditions: in vivo, read-out: Vdss
Would you mind telling me the reported Vd of each entry?
Provide the reading as a plain figure in L/kg.

Data request: What Vd value was documented for this molecule, Cc1c(-c2ccc(NC(=O)c3c(F)cccc3F)cc2)cccc1-c1nn(C)c(=O)o1 ?
Data returned: 2.3

Data request: What Vd value was documented for this molecule, Cc1c(-c2ccc(NC(=O)c3c(F)cccc3Cl)cc2)cccc1-c1nn(C)c(=O)o1 ?
Data returned: 2.3

====

assay: Cmax in rat at 60 mg/kg/day after 2 weeks; assay type: ADME, organism-based; set-up: time 2 weeks, dose 60 mg/kg/day; conditions: in vivo
Readout name: Cmax (ng/mL)
Provide the reading as a plain figure in ng/mL.

Data request: What Cmax value was documented for this compound, Cc1c(-c2ccc(NC(=O)c3c(F)cccc3F)cc2)cccc1-c1nn(C)c(=O)o1 ?
Data returned: 5440

====

experiment: AUClast in CFA-induced rheumatoid arthritis Lewis rat model at 0.3 mg/kg, po administered once daily for 15 days; type: ADME, organism-based; set-up: route oral, time 15 day, dose 0.3 mg/kg; settings: in vivo
Readout name: AUC(0-t) at 360 h

Data request: What AUC(0-t) at 360 h value was documented for this compound, Cc1c(-c2ccc(NC(=O)c3c(F)cccc3F)cc2)cccc1-c1nn(C)c(=O)o1 ?
Data returned: 10 µM·h

====

experiment: AUClast in collagen-induced rheumatoid arthritis DBA/1J mouse model at 0.75 mg/kg, po administered once daily for 15 days in presence of 3 mg/kg compound 36; assay type: ADME, organism-based; design: route oral, dose 0.75 mg/kg, time 15 day; conditions: in vivo
Readout name: AUC(0-t) at 360 h (µM·h)
Provide the reading as a plain figure in µM·h.

Data request: What AUC(0-t) at 360 h value was documented for this compound, CN(Cc1cnc2nc(N)nc(N)c2n1)c1ccc(C(=O)N[C@@H](CCC(=O)O)C(=O)O)cc1 [METHOTREXATE] ?
Data returned: 0.6

====

assay: Clearance in BALB/c mouse at 1 mg/kg, iv measured upto 24 hrs by LC-MS/MS analysis; type: ADME, organism-based; conditions: in vivo
Would you mind telling me the reported clearance of each entry?
Provide the reading as a plain figure in mL/min/kg.

Data request: What clearance value was documented for this molecule, Cc1c(-c2ccc(NC(=O)c3c(F)cccc3F)cc2)cccc1-c1nn(C)c(=O)o1 ?
Data returned: 5.2

Data request: What clearance value was documented for this molecule, Cc1c(-c2ccc(NC(=O)c3c(F)cccc3Cl)cc2)cccc1-c1nn(C)c(=O)o1 ?
Data returned: 8

====

experiment: Cmax in CFA-induced rheumatoid arthritis Lewis rat model at 1 mg/kg, po administered once daily for 15 days; type: ADME, organism-based; design: route oral, dose 1 mg/kg, time 15 day; details: in vivo
Readout name: Cmax (nM)
Provide the reading as a plain figure in nM.

Data request: What Cmax value was documented for this compound, Cc1c(-c2ccc(NC(=O)c3c(F)cccc3F)cc2)cccc1-c1nn(C)c(=O)o1 ?
Data returned: 2000

The origin of these recorded values is ChEMBL document CHEMBL4831556.
